tested on: CCRF-CEM leukemia; test: NCI tumour cell line growth inhibition, 48 h
Property measured: TGI

Completed entries (count: 10):
1) CC(=O)OCc1nc(C#N)c(N)o1	> 100 µM
2) CC1(C)C(O)c2ccccc2OC1N1CCN(C2Oc3ccccc3C(O)C2(C)C)CC1 (stereo not drawn)	> 100 µM
3) CC(=O)CC(=O)N(CCN(C(=O)CC(C)=O)c1ccccc1)c1ccccc1	> 100 µM
4) Nn1c(CCCl)nc2c(Br)cc(Br)cc2c1=O	20.3 µM
5) O=C(O)C1C2C=CC(O2)C1C(=O)Nc1ccccc1 (stereo not drawn)	> 100 µM
6) CCOC(=O)C1C(=O)CC(C)(O)C(C(=O)OCC)C1c1ccc(N(C)C)cc1 (stereo not drawn)	> 100 µM
7) COC(=O)c1ccccc1C1CN=NC12Cc1c(C)cc(C)cc1C2=O (stereo not drawn)	> 100 µM
8) CC(=O)C1(c2ccccc2)CCN(Cn2sc3nc(C)cc(C)c3c2=O)CC1	> 100 µM
9) COC(=O)c1cc(NC2OCC(OC(C)=O)C(OC(C)=O)C2OC(C)=O)nc(SC)c1C(=O)OC (stereo not drawn)	> 100 µM
10) COC(=O)c1cc(C#N)[nH]c1-c1ccsc1	> 100 µM

Exercise: Need TGI of COC(=O)C1=CC(O)CCC1c1ccc(OC)cc1 (stereo not drawn) , thanks.
Solution: > 100 µM

Exercise: Need TGI of NCC(=O)C(O)C(O)C(O)CO (stereo not drawn) , thanks.
Solution: > 100 µM

Exercise: Need TGI of `CCSC(=Nc1ccccc1)SC` , thanks.
Solution: > 100 µM

Exercise: Need TGI of O=C(O)C(Cc1cccs1)NC(=O)C(F)(F)F (stereo not drawn) , thanks.
Solution: > 100 µM

Exercise: Need TGI of `CN1CCN(C(=O)c2ccc(NC(=O)Nc3ccc(N(C)c4ccnc(Nc5ccc(CS(C)(=O)=O)cc5)n4)cc3)cc2)CC1` , thanks.
Solution: > 25 µM

Exercise: Need TGI of `Cc1cc(Cl)ccc1Nc1sc(C(=O)c2cc3cc(Cl)ccc3o2)c(N)c1C#N` , thanks.
Solution: > 52.8 µM

Exercise: Need TGI of `CCOC(=O)/C(=C/c1ccc(OC)c(OC)c1)C(=O)c1ccccc1` , thanks.
Solution: 55.1 µM

Exercise: Need TGI of `Cc1nc(NC(=S)NC(=O)c2ccc(Cl)c(Cl)c2)sc1C(=O)/C=C/c1ccccc1[N+](=O)[O-]` , thanks.
Solution: 73.9 µM
